Test system: Trypanosoma cruzi intracellular amastigotes (Tulahuen strain in rat L6 myoblasts)
method summary: Activity on T. cruzi intracellular amastigotes in L6 cells (LacZ/CPRG, 96 h)
Assay type: cell-based
test parameters: Trypanosoma cruzi, TULAHUEN, L6, 96 h, read-out: Amastigotes (mean ± SD) EC50
measurement type: pEC50
Entry type: numeric. Quantity: pEC50, the -log10 of concentration in molar units.

Recorded pEC50 for CCCCC(C)C(OC(=O)CC(CC(=O)O)C(=O)O)C(CC(C)CC(O)CCCCC(O)CC(O)C(C)N)OC(=O)CC(CC(=O)O)C(=O)O (stereo not shown) [Fumonisin B1] , please?
4.29

====

Tested on: Trypanosoma cruzi epimastigotes (STIB 980 strain)
method summary: Activity on T. cruzi epimastigotes (resazurin, 72 h)
Format: cell-based
test parameters: STIB980, 72 h, read-out: Epimastigotes (mean ± SD) EC50
measurement type: EC50

Reported EC50, compound CCCCC(C)C(OC(=O)CC(CC(=O)O)C(=O)O)C(CC(C)CC(O)CCCCC(O)CC(O)C(C)N)OC(=O)CC(CC(=O)O)C(=O)O (stereo not shown) : ____
> 92 µM

====

Test system: Trypanosoma cruzi intracellular amastigotes (Tulahuen strain in rat L6 myoblasts)
method summary: Activity on T. cruzi intracellular amastigotes in L6 cells (LacZ/CPRG, 96 h)
Format: cell-based
test parameters: Tulahuen strain in rat L6 myoblasts, 96 h, n = 3; listed as RO48-8071; read-out: Amastigotes (mean ± SD) EC50
pEC50: −log10 of the molar value.
measurement type: pEC50

For the compound C=CCN(C)CCCCCCOc1ccc(C(=O)c2ccc(Br)cc2)c(F)c1 , what pEC50 is on record?
≥ 6.00

====

Listing of entries alongside the reported EC50 at 72 h.
method summary: Cytotoxicity against L6 cells (resazurin, 72 h)
Type: cell-based, rat
test parameters: rat L6 myoblasts, 72 h, n = 3; read-out: L6 cells (mean ± SD) EC50
Description: Rat skeletal myoblasts (L6 cell lines) were seeded in 96-well plates (4 × 10^4 cells/well) in 100 μl RPMI 1640 medium supplemented with 10% fetal bovine serum (FBS) and 2 mM L-glutamine. After 24 h incubation the medium was replaced with 100 μl of fresh medium with or without a serial dilution of compound concentrations (eleven three-fold dilution steps). […] Growth was expressed as percentage of the values of solvent-treated controls. […]
Structures can show the parent of a compound that is named as a salt.
Reply with just the number (in µM).

>  <molecule>
CN(C)CCC=C1c2ccccc2CCc2ccccc21 [Amitriptyline (hydrochloride), Amitriptyline]

>  <measure unit>
µM

>  <EC50 at 72 h>
17.2

$$$$

Looking for the measured EC50 at 72 h of C[C@H]1CC[C@]2(NC1)O[C@H]1C[C@H]3[C@@H]4CC[C@H]5C[C@@H](O)CC[C@]5(C)[C@H]4CC[C@]3(C)[C@H]1[C@@H]2C [Tomatidine (hydrochloride), Tomatidine] , can you help?
89.5

====

# EC90 annotations
Test system: Trypanosoma cruzi epimastigotes (STIB 980 strain)
method summary: Activity on T. cruzi epimastigotes (resazurin, 72 h)
Type: cell-based
test parameters: STIB980, STIB 980 strain, 72 h, n = 3, read-out: Epimastigotes (mean ± SD) EC90
Structures can show the parent of a compound that is named as a salt.

>  <compound>
O=C(Cn1ccnc1[N+](=O)[O-])NCc1ccccc1

>  <measurement type>
EC90

>  <value measured>
101 µM

$$$$
>  <compound>
C[C@H]1CC[C@]2(NC1)O[C@H]1C[C@H]3[C@@H]4CC[C@H]5C[C@@H](O)CC[C@]5(C)[C@H]4CC[C@]3(C)[C@H]1[C@@H]2C [Tomatidine (hydrochloride), Tomatidine]

>  <measurement type>
EC90

>  <value measured>
> 221 µM

$$$$
>  <compound>
CC(C)(Oc1ccc(CCNC(=O)c2ccc(Cl)cc2)cc1)C(=O)O [Bezafibrate]

>  <measurement type>
EC90

>  <value measured>
> 276 µM

$$$$
>  <compound>
S=C(S)OC1CC2CC1C1CCCC21 (stereo not shown) [D609 (potassium salt), D609]

>  <measurement type>
EC90

>  <value measured>
> 375 µM

$$$$
>  <compound>
CN(C)CCC=C1c2ccccc2CCc2ccccc21 [Amitriptyline (hydrochloride), Amitriptyline]

>  <measurement type>
EC90

>  <value measured>
96.8 µM

$$$$

EC90 lookup needed for CCCCCCC(=O)CCCCCC/C=C/C[C@@H](O)[C@H](O)[C@@](N)(CO)C(=O)O , thanks.
> 249 µM

What value of EC90 has been recorded for this entry: CCCCCCCCc1ccc(CCC(N)(CO)COP(=O)(O)O)cc1 (stereo not shown) [FTY720 Phosphate, FTY720-P]
> 258 µM

Which EC90 is reported for this compound? OCC1C(O)C(O)C(O)CN1CCCCCOCC12CC3CC(CC(C3)C1)C2 (stereo not shown)
237 µM

Bench note: what EC90 did O=C(/C=C/c1ccc(/C=C/C(=O)Nc2ccc(C3=NCCN3)cc2)cc1)Nc1ccc(C2=NCCN2)cc1 [GW4869 (hydrochloride hydrate), GW4869] show?
> 173 µM

Which measured EC90 value corresponds to C=CCN(C)CCCCCCOc1ccc(C(=O)c2ccc(Br)cc2)c(F)c1 ?
29.4 µM
